System: RAW 264.7 cells
EXPERIMENT_NOTES: Cytotoxicity / cell viability by MTT assay in LPS-induced RAW 264.7 cells
Assay type: cell-based
APPLIED_CONDITIONS: MTT, concentration at which cell viability was lower than 80%, maximum concentration 200 μM
MEASURE_NAME: Cytotoxicity

# count of solved cases: 5
{"MOLECULE": "COc1ccc2c(CC#N)c([S+](C)[O-])[nH]c2c1 (stereo not drawn) [Compound 2]", "ENDPOINT_VALUE": ">200 µM"}
{"MOLECULE": "COc1ccc2c(c1)c(CC(=O)O)c(C)n2C(=O)c1ccc(Cl)cc1 [indomethacin, reference compound]", "ENDPOINT_VALUE": ">200 µM"}
{"MOLECULE": "COc1cccc2[nH]c3c(C#N)c4c(cc3c12)[nH]c1cc(O)ccc14 [Compound 8]", "ENDPOINT_VALUE": ">200 µM"}
{"MOLECULE": "CO/N=C(\\SC)C(=O)c1c[nH]c2cc(OC)ccc12 [Compound 4]", "ENDPOINT_VALUE": ">200 µM"}
{"MOLECULE": "COc1ccc2c(c1)NC(=O)[C@]2(O)CC#N [Compound 1]", "ENDPOINT_VALUE": ">200 µM"}

In: Which Cytotoxicity value is on record for CO/N=C(/Cc1c[nH]c2cc(OC)ccc12)SC [Compound 3] ?
Out: toxicity at 100 μM

In: Which Cytotoxicity value is on record for COc1ccc2cc(C3=C(c4c[nH]c5cccc(OC)c45)N=C3SC)[nH]c2c1 [Compound 6] ?
Out: toxicity at 100 μM

In: Which Cytotoxicity value is on record for CO/N=C(\C=C1\C(=O)Nc2cc(OC)ccc21)SC [Compound 5] ?
Out: >200 µM

In: Which Cytotoxicity value is on record for COc1ccc2cc(C3=C(c4c[nH]c5cccc(OC)c45)N=C3[S+](C)[O-])[nH]c2c1 (stereo not drawn) [Compound 7] ?
Out: toxicity at 100 μM
